- assayText: Compound stability in rat liver microsomes
- Type: in vitro ADME
- conditionParameters: liver microsomes, pH 7.4; in vivo CLint extrapolated from rat liver microsome incubation
Each entry below lists one item and its recorded CLint scaled at 5 μM value.
The reply must contain the numeric value and, after it, the unit.

Some solved cases for reference:
                                   compound        reported
0  Cc1nc2cc(Nc3ncc(Cl)c(NC4CCN(c5ccc(C#N)cn5)CC4)n3)ccc2n1C  44.6 mL/min/kg
1  CC(C)(O)Cn1cnc2cc(Nc3ncc(Cl)c(NC4CCN(c5ccc(C#N)cn5)CC4)n3)ccc21   249 mL/min/kg
2  Cc1c(Nc2ncc(Cl)c(NC3CCN(c4ccc(C#N)nn4)CC3)n2)ccn2c(C)cnc12  76.8 mL/min/kg
3  Cc1cn2c(C)cnc2cc1Nc1ncc(Cl)c(NC2CCN(c3ccc(C#N)nn3)CC2)n1  11.7 mL/min/kg
4  CCCn1nnc2cc(Nc3ncc(Cl)c(NC4CCN(c5ccc(C#N)nn5)CC4)n3)ccc21   473 mL/min/kg
5  N#Cc1ccc(N2CCC(Nc3nc(Nc4ccn5c(C6CC6)cnc5c4)ncc3Cl)CC2)nn1   232 mL/min/kg

Prompt: For CCC1CN(c2ccc(C#N)cn2)CCC1Nc1nc(Nc2ccn3c(C)cnc3c2)ncc1Cl (stereo not shown) , what is its reported CLint scaled at 5 μM?
Response: 52.4 mL/min/kg
